The entries below come with measured TGI values attached.
Tested on: HCT-15 colon
procedure.text: NCI tumour cell line growth inhibition, 48 h
Where a SMILES comes first, the peptide text is derived from it. The star is where a group is joined. Boc = CC(C)(C)OC(=O)*
property.name: TGI

[
  {
    "molecule": "Cc1onc(-c2c(F)cccc2Cl)c1C(=O)N[C@@H]1C(=O)N2[C@@H]1SC(C)(C)[C@@H]2C(=O)O",
    "tested.system": "HCT-15 colon",
    "data.value": "> 100 µM"
  },
  {
    "molecule": "COc1ccc(-n2cc(-c3ccc(OC)c(OC)c3)nc2SCc2ccccc2)cc1Cl",
    "tested.system": "HCT-15 colon",
    "data.value": "> 100 µM"
  },
  {
    "molecule": "CCOC(=O)CNC(=O)C(CSC(=O)N(C)O)NC(=O)CCC(N)C(=O)O (centres undefined)",
    "tested.system": "HCT-15 colon",
    "data.value": "> 2000 µM"
  },
  {
    "molecule": "CCOc1cc(NC(C)=O)ccc1C(=O)NN1C(=O)CSC1c1ccc(O)c(OC)c1 (centres undefined)",
    "tested.system": "HCT-15 colon",
    "data.value": "> 100 µM"
  },
  {
    "molecule": "C=CCC1=CC2(OC)C(=O)C(OC)(OC)C1C1C(OC)(OC)C(=O)C(OC)=CC12CC=C (centres undefined)",
    "tested.system": "HCT-15 colon",
    "data.value": "> 100 µM"
  },
  {
    "molecule": "O=C1/C(=C\\c2c(-c3ccccc3)nn(-c3ccccc3)c2O)C(c2ccccc2)=NN1c1ccccc1",
    "tested.system": "HCT-15 colon",
    "data.value": "> 100 µM"
  },
  {
    "molecule": "ClCC1(CCl)COC1",
    "tested.system": "HCT-15 colon",
    "data.value": "> 100 µM"
  },
  {
    "molecule": "O=C(CC1(O)C(=O)Nc2c(Cl)ccc(Cl)c21)c1ccc(C2CC2)cc1 (centres undefined)",
    "tested.system": "HCT-15 colon",
    "data.value": "14.3 µM"
  },
  {
    "molecule": "CCOC(=O)C(CC(C)C)NC(=O)C(Cc1ccccc1)NC(=O)CNC(=O)OC(C)(C)C (stereo not drawn) (Boc-Gly-Phe-Leu-OEt; configuration not given here)",
    "tested.system": "HCT-15 colon",
    "data.value": "35.8 µM"
  },
  {
    "molecule": "O=[N+]([O-])c1ccc(-c2ccccc2)c([As](=O)(O)O)c1",
    "tested.system": "HCT-15 colon",
    "data.value": "41.2 µM"
  },
  {
    "molecule": "CN(C)CCOc1nc2ccccc2c2c1-c1ccc(Cl)cc1C2=O",
    "tested.system": "HCT-15 colon",
    "data.value": "1.92 µM"
  },
  {
    "molecule": "COc1cc(C2C(C#N)=C(N)Oc3cc4c(cc32)OCO4)cc2c1OCO2 (centres undefined)",
    "tested.system": "HCT-15 colon",
    "data.value": "> 100 µM"
  },
  {
    "molecule": "O=C(NC/C(Cl)=C/Cl)Nc1cccc2c1CCCC2",
    "tested.system": "HCT-15 colon",
    "data.value": "> 100 µM"
  },
  {
    "molecule": "CCOC(=O)c1cn2c([nH]c3ccccc32)c(C#N)c1=O",
    "tested.system": "HCT-15 colon",
    "data.value": "> 100 µM"
  },
  {
    "molecule": "CC(C)(C)C[P+](C)(C)c1ccccc1",
    "tested.system": "HCT-15 colon",
    "data.value": "> 100 µM"
  },
  {
    "molecule": "O=C1CSC(/C=C/c2ccccc2)N1c1ccc(-n2c(-c3ccccc3)nc3ccccc3c2=O)cc1 (centres undefined)",
    "tested.system": "HCT-15 colon",
    "data.value": "> 100 µM"
  },
  {
    "molecule": "c1ccc2c3nnc(c2c1)SCCSCCCSCCS3",
    "tested.system": "HCT-15 colon",
    "data.value": "> 100 µM"
  },
  {
    "molecule": "C=C1CO[C@@H]2C[C@@H]1CC/C(C)=C/CC/C(C)=C/CC[C@@]2(C)O",
    "tested.system": "HCT-15 colon",
    "data.value": "38 µM"
  },
  {
    "molecule": "O=C(NNC(=O)c1ccccc1Cl)c1ccccc1O",
    "tested.system": "HCT-15 colon",
    "data.value": "> 100 µM"
  },
  {
    "molecule": "CN1CCN(c2ccc3nc4c(nc3c2C(F)(F)F)C(=O)c2ncccc2C4=O)CC1",
    "tested.system": "HCT-15 colon",
    "data.value": "3.11 µM"
  },
  {
    "molecule": "COC(=O)CCc1ccc2c(c1)CC1(C2)Cc2ccc3c(c2C1)CCC3 (centres undefined)",
    "tested.system": "HCT-15 colon",
    "data.value": "> 100 µM"
  },
  {
    "molecule": "Cc1sc(/N=C2/NC(=O)CS2)nc1-c1nc(/N=C2/NC(=O)CS2)sc1C",
    "tested.system": "HCT-15 colon",
    "data.value": "> 50 µM"
  },
  {
    "molecule": "CCOC(=O)C(Cc1ccc(OC)cc1)C(=O)OCC",
    "tested.system": "HCT-15 colon",
    "data.value": "19.4 µM"
  },
  {
    "molecule": "C=C1C(=O)OC2/C=C(\\C)CC(O)/C=C(/CO)CC(OC(=O)/C(C)=C/C)C12 (centres undefined)",
    "tested.system": "HCT-15 colon",
    "data.value": "151 µM"
  },
  {
    "molecule": "CCN1C(=O)N(CC)C2C1NN=c1s/c(=C\\c3ccccc3)c(=O)n12 (centres undefined)",
    "tested.system": "HCT-15 colon",
    "data.value": "> 100 µM"
  },
  {
    "molecule": "CCCCCn1cnc2c1S(=O)(=O)N(C)C(NC(=O)c1ccccc1)=N2",
    "tested.system": "HCT-15 colon",
    "data.value": "> 100 µM"
  },
  {
    "molecule": "COc1ccc(-n2c(=O)n(C)c(=O)n2-c2c(C)c(C)c(C)c(C)c2C)cc1",
    "tested.system": "HCT-15 colon",
    "data.value": "> 100 µM"
  },
  {
    "molecule": "COC(=O)Nc1nc2ccc(Sc3ccccc3)cc2[nH]1",
    "tested.system": "HCT-15 colon",
    "data.value": "23 µM"
  },
  {
    "molecule": "CCS/C(Nc1ccccc1)=C(\\C#N)C(=O)N/N=C/c1ccc(Cl)cc1Cl",
    "tested.system": "HCT-15 colon",
    "data.value": "> 100 µM"
  },
  {
    "molecule": "NC1=NS(=O)(=O)Nc2nc(-c3cccs3)[nH]c21",
    "tested.system": "HCT-15 colon",
    "data.value": "> 100 µM"
  },
  {
    "molecule": "O=C(N/C(=C/c1ccc(Cl)cc1)c1nc2ccccc2c(=O)n1Nc1ccc([N+](=O)[O-])cc1[N+](=O)[O-])c1ccccc1",
    "tested.system": "HCT-15 colon",
    "data.value": "> 100 µM"
  },
  {
    "molecule": "CC1C(=O)C23OC[C@@]1(C)C1(O)CC[C@@H](C)[C@]21CC3=O (some centres undefined)",
    "tested.system": "HCT-15 colon",
    "data.value": "> 100 µM"
  },
  {
    "molecule": "O=C(/C=C/c1ccc(Cl)c(Cl)c1)C1CCC(Cl)CC1 (centres undefined)",
    "tested.system": "HCT-15 colon",
    "data.value": "35.1 µM"
  },
  {
    "molecule": "CC(C)NC(=O)O/N=C1\\CCC2[C@@H]3CC=C4C[C@@H](OC(=O)NC(C)C)CC[C@]4(C)C3CC[C@]12C (some centres undefined)",
    "tested.system": "HCT-15 colon",
    "data.value": "3.08 µM"
  }
]

From: PubChem BioAssay (NCI)
